- System: COLO 205 colon
- Method summary: NCI tumour cell line growth inhibition, 48 h
Measurement label: TGI

Incoming: Need TGI, item O=C1c2ccccc2-c2c1c1c(=O)[nH]c3ccccc3c1n2Cc1ccccc1
Outgoing: > 100 µM

Incoming: Queued: c1cc(N(CCn2cccn2)CCn2cccn2)cc(N(CCn2cccn2)CCn2cccn2)c1
Outgoing: > 100 µM

Incoming: Queued: CN1CCCC2(CCCc3ccccc32)C1 (stereo not given)
Outgoing: > 100 µM

Incoming: Queued: COc1cc(C2c3cc4c(cc3[C@@H](Nc3ccccc3)C3COC[C@H]23)OCO4)cc(OC)c1O (stereo not given in full)
Outgoing: 70.7 µM

Incoming: Queued: CC1(C)N=C(C(N)=O)c2ncn(N)c2N1
Outgoing: > 100 µM

Incoming: Queued: COC(=O)/C(=C\Nc1cccc(C)n1)S(=O)(=O)c1ccc(C)cc1
Outgoing: 49.9 µM

Incoming: Queued: Nc1ccc(C2=NN(c3ccccc3)C(c3ccc(Cl)cc3)C2)cc1 (stereo not given)
Outgoing: 4.54 µM

Incoming: Queued: CC(C(=O)c1ccccc1)C(c1ccccc1)N1CCOCC1 (stereo not given)
Outgoing: > 100 µM

Incoming: Queued: S=C(Nc1ccc(Br)cc1)Nc1ccc(Br)cc1
Outgoing: > 100 µM

Incoming: Queued: O=c1c(Oc2ccc(F)cc2F)cc2cnc(NC3CCOCC3)nc2n1CCCO
Outgoing: > 25 µM

Incoming: Queued: [Cl][Hg][Cl]
Outgoing: 24.6 µM

Incoming: Queued: CC(=O)[C@@]1(C)CC2(CCN(C)CC2)OC1C (stereo not given in full)
Outgoing: > 100 µM

Incoming: Queued: O=c1[nH]c(=O)n(C2OC(COP(=O)(O)OP(=O)(O)OC3OC(CO)C(O)C(O)C3O)C(O)C2O)cc1F (stereo not given)
Outgoing: 7.14 µM

Incoming: Queued: C1CCC2(CC1)O[C@@H]1[C@@H](O2)[C@@H](O[C@H]2O[C@@H]3COC4(CCCCC4)O[C@H]3[C@@H]3OC4(CCCCC4)O[C@@H]23)O[C@@H]2COC3(CCCCC3)O[C@@H]12
Outgoing: > 100 µM

Incoming: Queued: C=C1C(=O)O[C@@H]2C[C@@H](C)[C@@H]3C=CC(=O)[C@@]3(C)[C@@H](OC(=O)CC(=O)O[C@H]3[C@@H]4C(=C)C(=O)O[C@@H]4C[C@@H](C)[C@@H]4C=CC(=O)[C@]43C)[C@H]12
Outgoing: 0.0403 µM

Incoming: Queued: Nc1nc(SCc2ccc([N+](=O)[O-])cc2)nc2c1ncn2C1OC(COP(=O)(O)O)C(O)C1O (stereo not given)
Outgoing: > 100 µM

Incoming: Queued: OCc1ccc(-c2ccc(-c3ccc(CO)o3)[se]2)o1
Outgoing: > 100 µM

Incoming: Queued: O=C(c1ccc(Cl)cc1)c1ccc(OCCCOc2ccc(C(=O)c3ccc(Cl)cc3)cc2)cc1
Outgoing: > 100 µM

Incoming: Queued: OC(c1cc2ccccc2o1)c1cc2ccccc2s1 (stereo not given)
Outgoing: > 10 µM

Incoming: Queued: COC(=O)[C@@H]1[C@@H](c2cccc(Cl)c2)[C@H](C(=O)OC)C2(C[C@@]1(C)O)NCCS2 (stereo not given in full)
Outgoing: > 100 µM

----------
- System: TK-10 renal
- Method summary: NCI tumour cell line growth inhibition, 48 h
Measurement label: TGI

Incoming: Observed TGI on TK-10 renal for C[Si](C)(OCCS(=O)(=O)O)C1(Cc2cccc3ccccc23)S(=O)(=O)OCCOS1(=O)=O , please.
Outgoing: 50.9 µM

Incoming: Queued: Nn1c(COc2cccc(OCc3n[nH]c(=S)n3N)c2)n[nH]c1=S
Outgoing: > 100 µM

Incoming: Queued: C[n+]1c(-c2ccc(/C=N/NC(=N)N/N=C/c3ccc(-c4cn5cc(Cl)ccc5[n+]4C)cc3)cc2)cn2cc(Cl)ccc21
Outgoing: > 100 µM

Incoming: Queued: O=C1CCC2(CC1CC(Sc1ccccc1)Sc1ccccc1)OCCO2 (stereo unspecified)
Outgoing: > 100 µM

Incoming: Queued: COC(=O)C(Cc1c(C2Nc3ccccc3C2CC(NC(=O)CNC(C)=O)C(=O)OC)[nH]c2ccccc12)NC(=O)CNC(C)=O (stereo unspecified)
Outgoing: > 100 µM

Incoming: Queued: COc1ccc2c(c1)N1CCc3cc(OC)c(OC)cc3C1C2 (stereo unspecified)
Outgoing: > 100 µM

Incoming: Queued: BrCCCCCOc1ccc(-c2c3ccccc3c(-c3ccc(OCCCCCBr)cc3)c3ccccc23)cc1
Outgoing: > 100 µM

Incoming: Queued: Clc1nc(Cl)c2ncn(Cc3cccc(Cn4cnc5c(Cl)nc(Cl)nc54)c3)c2n1
Outgoing: 7.31 µM

Incoming: Queued: COc1cc(/C=C2\C(=O)Nc3cc(C)c(O)cc32)cc(OC)c1OC
Outgoing: 40.4 µM

Incoming: Queued: C[C@]12CC[C@H]3[C@@H](CC=C4C[C@@H](N5CCCC5)CC[C@@]43C)[C@@H]1C[C@H](N1CCOCC1)[C@@H]2O
Outgoing: > 100 µM

Incoming: Queued: OCc1ccc(-c2ccc(-c3ccc(CO)o3)[se]2)o1
Outgoing: > 100 µM

Incoming: Queued: O=C1c2ccccc2-c2c1c1c(=O)[nH]c3ccccc3c1n2Cc1ccccc1
Outgoing: 29.2 µM

Incoming: Queued: COc1ccc(-c2cc(=O)c3ccc(C)nc3[nH]2)cc1
Outgoing: > 100 µM

Incoming: Queued: Cn1cc(C2=C(c3cn(CCCCN)c4ccccc34)C(=O)NC2=O)c2ccccc21
Outgoing: > 25 µM

Incoming: Queued: CC1(C)N=C(C(N)=O)c2ncn(N)c2N1
Outgoing: > 100 µM

Incoming: Queued: CC(C)OP(=O)(OC(C)C)/C(I)=N/Nc1ccc([N+](=O)[O-])cc1
Outgoing: > 100 µM

Incoming: Queued: Cc1ccsc1/C=N/Nc1nc2ccccc2s1
Outgoing: 26.9 µM

Incoming: Queued: COC(=O)/C=C\n1c(C)cc(=O)[nH]c1=O
Outgoing: > 100 µM

Incoming: Queued: COC(=O)CCc1c[nH]c2ccc(N(CCCl)CCCl)cc12
Outgoing: 66 µM

Incoming: Queued: C=C(C)C(=O)O[C@H]1C[C@@]23O[C@@H]2CCC(=C[C@H]2OC(=O)C(=C)[C@H]12)COC3O (stereo partly specified)
Outgoing: > 100 µM

Incoming: Queued: Cc1cnc2sn(-c3ccc(Oc4ccccc4)cc3)c(=O)c2c1
Outgoing: 40.1 µM
